Where these numbers come from: patent US20100267561A1

System: johnsongrass (Sorghum halepense)
assay.protocol: Test B pre-/postemergence plant response
Format: in vivo
experimental.setup: Preemergence, 62 g ai/ha; scale 0 to 100
observation.type: Plant response rating, Johnsongrass
The reply should be a number, written without any unit.

input: Identify the measured Plant response rating, Johnsongrass of Cc1cc(-c2ccc(Cl)cc2)nn1-c1c(OC(=O)C(C)C)cnn(C)c1=O [Compound 34] for johnsongrass (Sorghum halepense).
output: 100

input: Likewise for Cc1cc(-c2ccc(Br)cc2)nn1-c1c(O)cnn(C)c1=O [Compound 4] ?
output: 30

input: Likewise for CCc1cc(-c2ccc(Cl)cc2)nn1-c1c(OC(=O)OC(C)C)cnn(C)c1=O [Compound 41] ?
output: 95

input: Likewise for Cn1ncc(O)c(-c2nn(-c3ccc(Cl)cc3)cc2Br)c1=O [Compound 31] ?
output: 75

input: Likewise for CCc1cc(-c2ccc(Cl)cc2)nn1-c1c(OS(C)(=O)=O)cnn(C)c1=O [Compound 39] ?
output: 95

input: Likewise for CCc1cc(-c2ccc(Cl)c(Cl)c2)nn1-c1c(O)cnn(C)c1=O [Compound 20] ?
output: 95

input: Likewise for Cc1cc(-c2ccc(Cl)cc2)nn1-c1c(OS(C)(=O)=O)cnn(C)c1=O [Compound 36] ?
output: 100

input: Likewise for Cn1ncc(O)c(-c2nn(-c3ccc(Cl)cc3)cc2Cl)c1=O [Compound 28] ?
output: 100

input: Likewise for CCc1cc(-c2ccc(C(F)(F)F)cc2)nn1-c1c(OS(C)(=O)=O)cnn(C)c1=O [Compound 19] ?
output: 100

---

System: corn (Zea mays)
assay.protocol: Test A pre-/postemergence plant response
Assay type: in vivo
experimental.setup: Preemergence, 125 g ai/ha; 0 to 100 scale (0 no effect, 100 complete control)
Task for the reader: assign each of the following compounds its reported Plant response rating, Corn.
The reply should be a number, written without any unit.

input: # Plant response rating, Corn lookup, item Cc1cc(-c2ccc(Br)cc2)nn1-c1c(O)cnn(C)c1=O [Compound 4]
output: 70

input: Likewise for COCc1cc(-c2ccc(Br)cc2)nn1-c1c(O)cnn(C)c1=O [Compound 68] ?
output: 0

input: Likewise for COc1ccc(-c2cc(C)n(-c3c(O)cnn(C)c3=O)n2)cc1 [Compound 62] ?
output: 0

input: Likewise for C#CCOC(=O)Oc1cnn(C)c(=O)c1-n1nc(-c2ccc(Cl)cc2)cc1C [Compound 58] ?
output: 20

---

Task for the reader: assign each of the following compounds its reported Plant response rating, Corn.
Test system: corn (Zea mays)
assay.protocol: Test B pre-/postemergence plant response
Assay type: in vivo
experimental.setup: Preemergence, 62 g ai/ha; scale 0 to 100
The reply should be a number, written without any unit.

input: # Plant response rating, Corn lookup, item "Cc1cc(-c2ccc(Cl)cc2)nn1-c1c(OC(=O)C(C)C)cnn(C)c1=O"
output: 95

input: Likewise for "CCc1cc(-c2ccc(Cl)cc2)nn1-c1c(OC(=O)OC(C)C)cnn(C)c1=O" ?
output: 95

input: Likewise for "Cc1cc(-c2ccc(Cl)cc2)nn1-c1c(OS(C)(=O)=O)cnn(C)c1=O" ?
output: 95

input: Likewise for "Cc1cc(-c2ccc(Cl)cc2)nn1-c1c(OC(=O)c2ccccc2)cnn(C)c1=O" ?
output: 75

input: Likewise for "COC(=O)Oc1cnn(C)c(=O)c1-n1nc(-c2ccc(Cl)cc2)cc1C" ?
output: 95

input: Likewise for "CCc1cc(-c2ccc(Cl)c(Cl)c2)nn1-c1c(O)cnn(C)c1=O" ?
output: 95

input: Likewise for "Cc1cc(-c2ccc(C(F)(F)F)cc2)nn1-c1c(OC(=O)C(C)(C)C)cnn(C)c1=O" ?
output: 90
